Test system: MDA-MB-435 melanoma
method: NCI-60 one-dose screen, 48 h
condition: 10 µM
About 83,000 compounds went through this panel and 20% of them were active in at least one assay; those are over-represented in the sample as a whole. Active and inactive are the calls of the source. The calls were made as follows: active = growth percent below 10; inactive = the rest.
Hello, when you answer, please use one of the following outcomes: active, inactive

The examples below pair each entry with its known result.
{"molecule": "O=C1OCC2=C1C(c1cccc(Cl)c1)c1cc3c(cc1N2CCO)OCCO3 (stereo not given)", "assigned label": "active"}
{"molecule": "COc1ccc(-c2cc(-c3cccc(NS(C)(=O)=O)c3)nc(N)c2C#N)cc1", "assigned label": "active"}
{"molecule": "O=C(Nc1ccccc1)Nc1cccc(-n2cc(-c3ccncc3)c(-c3ccc(O)c(Cl)c3)n2)c1", "assigned label": "inactive"}
{"molecule": "CCCCCCN1CCN(Cc2ccc(N(CC)CC)cc2)C(=O)C1=O", "assigned label": "active"}

Moving on to another molecule below.
Input line: # lookup: test call for CCN1CCCC1CNC(=O)c1ncc(-c2ccc(C(F)(F)F)cc2)c(NC2CCCCCC2)n1 (stereo not given)
Output line: inactive
